Origin of values: paper PMC5622107

Listed below: pIC50 values for each entry.
# target.or.test.system: mouse cGAS (Mus musculus)
# Construct: recombinant full-length mouse cGAS in reaction buffer; His6-SUMO (N, cleaved yes); made in house; host or cells: E. coli BL21(DE3) RIL
# Sequence (Q8C6L5 whole entry): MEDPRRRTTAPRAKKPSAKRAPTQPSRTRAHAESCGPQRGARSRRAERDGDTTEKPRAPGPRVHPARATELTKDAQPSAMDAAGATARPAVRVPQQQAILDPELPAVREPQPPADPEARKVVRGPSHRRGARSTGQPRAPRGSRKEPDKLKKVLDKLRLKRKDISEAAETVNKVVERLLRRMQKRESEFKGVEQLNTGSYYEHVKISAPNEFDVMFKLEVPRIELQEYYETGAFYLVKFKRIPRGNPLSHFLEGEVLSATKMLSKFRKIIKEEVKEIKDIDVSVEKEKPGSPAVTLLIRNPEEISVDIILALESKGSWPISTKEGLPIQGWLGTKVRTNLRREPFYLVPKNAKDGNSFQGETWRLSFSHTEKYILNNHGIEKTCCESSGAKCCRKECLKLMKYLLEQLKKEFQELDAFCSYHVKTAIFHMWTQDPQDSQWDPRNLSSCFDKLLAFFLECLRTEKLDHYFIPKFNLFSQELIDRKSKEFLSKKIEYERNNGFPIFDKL
# measurement.description: RapidFire mass spectrometry (RF-MS) cGAS enzymatic assay, cGAMP product formation
# Type: biochemical
# study.conditions: Supplementary Table 4; analogs of RU166365, m-cGAS inhibition; read-out: IC50
pIC50: −log10 of the molar value.
observed.property: pIC50

1) COc1ccc2nc(-n3nc(C)c(C4OC(=O)c5ccccc54)c3O)[nH]c2c1 (stereo not drawn)
5.13
2) Cc1nn(-c2nc3ccccc3[nH]2)c(O)c1C1OC(=O)c2ccc(Br)cc21 (stereo not drawn)
5.65
3) CC(C)c1nn(-c2nc3ccccc3[nH]2)c(O)c1C1OC(=O)c2ccccc21 (stereo not drawn)
5.15
4) Cc1nn(-c2nc3cccc(C(F)(F)F)c3[nH]2)c(O)c1C1OC(=O)c2ccccc21 (stereo not drawn)
5.48
5) COC(=O)c1cccc2c1C(=O)OC2c1c(C)nn(-c2nc3ccccc3[nH]2)c1O (stereo not drawn)
5.16
6) Cc1nn(-c2nc3ncccc3[nH]2)c(O)c1C1OC(=O)c2ccccc21 (stereo not drawn)
4.96
7) Cc1nn(-c2nc3ccc(C(=O)O)cc3[nH]2)c(O)c1C1OC(=O)c2ccccc21 (stereo not drawn)
4.74
8) COC(=O)Cc1cccc2c1C(=O)OC2c1c(C)nn(-c2nc3ccccc3[nH]2)c1O (stereo not drawn)
5.61
9) Cc1nn(-c2nc3ccc(-c4ccccc4)cc3[nH]2)c(O)c1C1OC(=O)c2ccccc21 (stereo not drawn)
5.47
10) COC(=O)c1ccc2c(c1)C(c1c(C)nn(-c3nc4ccccc4[nH]3)c1O)OC2=O (stereo not drawn)
5.07
11) Cc1nn(-c2nc3ccccc3[nH]2)c(O)c1C1OC(=O)c2cccc(Br)c21 (stereo not drawn)
4.71

====

# Test system: 45-bp dsDNA
# measurement.description: DNA intercalation: acridine orange displacement from dsDNA by fluorescence polarization
# Assay type: binding
# study.conditions: Supplementary Table 2; compound 30 µM
observed.property: Polarization (mP)

1. COc1cccc2c1C(=O)c1c(O)c3c(c(O)c1C2=O)C[C@@](O)(C(=O)CO)C[C@@H]3O[C@H]1C[C@H](N)[C@H](O)[C@H](C)O1
53
2. Oc1c(Cl)cc(Cl)c(Cl)c1Cc1c(O)c(Cl)cc(Cl)c1Cl
108
3. N#Cc1cc(I)c(O)c([N+](=O)[O-])c1
256
4. COc1cccc2c1C(=O)c1c(O)c3c(c(O)c1C2=O)C[C@@](O)(C(C)=O)C[C@@H]3O[C@H]1C[C@H](N)[C@H](O)[C@H](C)O1
50
5. N#Cc1ccc(/C=C2\CS(=O)(=O)c3c(F)cccc3C2=O)cc1
263
6. CC(C)c1ccc2oc3nc(N)c(C(=O)O)cc3c(=O)c2c1
248
7. N#CCC(=O)Nc1sc2c(c1C(N)=O)CCCC2
263
8. OCc1cn(-c2ccccc2Cl)nn1
253
9. CC(C)OC(=O)C(C#N)=Cc1ccc([N+](=O)[O-])o1
267
10. O=C(Nc1nncs1)c1cn(-c2ccccc2Br)nn1
253
11. Cc1ccc(C(=O)c2nc3c(n2O)CCCCC3)cc1
251
12. NC(=O)N1C(=O)/C(=C(\O)c2cccs2)c2cc(Cl)ccc21
276
13. O=C1c2c(O)ccc(O)c2C(=O)c2c(NCCNCCO)ccc(NCCNCCO)c21
41
14. O=c1cc(CCn2cccn2)nc(-c2ccc(CN3CCC[C@@H]3CO)cc2)[nH]1
270
15. O=C(O)c1cc(O)c2c(c1)[C@@H]([C@H]1c3cc(C(=O)O)cc(O)c3C(=O)c3c(O[C@H]4O[C@H](CO)[C@@H](O)[C@H](O)[C@H]4O)cccc31)c1cccc(O[C@H]3O[C@H](CO)[C@@H](O)[C@H](O)[C@H]3O)c1C2=O
278
16. CC(=O)[C@]1(O)Cc2c(O)c3c(c(O)c2[C@@H](O[C@H]2C[C@H](N)[C@H](O)[C@H](C)O2)C1)C(=O)c1ccccc1C3=O
72
17. O=[N+]([O-])c1cc([As](=O)(O)O)ccc1O
271
18. O=C1N=C(N2CCCCC2)SC1=C1C(=O)Nc2ccccc21
269
19. O=C(O)C1CSC(c2cc(Br)c(O)c(Br)c2)N1 (centres unmarked)
264
20. O=C1NC(=S)SC1=Cc1ccccc1F
271
21. O=C(Nc1ncc([N+](=O)[O-])s1)c1cccs1
274
22. O=C(CCl)Nc1nc(-c2c[nH]c3ccccc23)cs1
271
23. Cc1nnc(NC(=O)c2ccc(S(=O)(=O)Nc3cccc(C(F)(F)F)c3)o2)s1
239
24. N#CC1=C(N)SC(N)=C(C#N)C1c1ccc([N+](=O)[O-])cc1
266
25. CCOC(=O)c1n[nH]c2c1C(=O)N(CC)C2=O
254
26. O=C(O)COc1cc(Cl)c(Cl)cc1Cl
244
27. Nc1c2ccccc2nc2ccccc12
145
28. Cc1nc2nc(C)c(Br)c(O)n2n1
252
29. CCN(CC)CCNc1ccc(CO)c2sc3ccccc3c(=O)c12
85
30. O=c1[nH]n2c(=O)c3ccccc3nc2c2ccccc12
255
31. CCOc1ccc2nc3cc(N)ccc3c(N)c2c1
139
32. O=C1CN2C(=C1c1ccccc1)NC(=O)c1sc3ccccc3c12
274
33. CS(=O)(=O)c1ncc2c(n1)c(=O)c(C#N)c1[nH]c3ccccc3c(=O)n12
272
34. S=c1[nH]nc(-c2sc3ccccc3c2Cl)o1
288
35. COC(=O)C1=NN2C(=NS(=O)(=O)c3ccccc32)N1
251
36. CCC1=NN2C(=N)/C(=C/c3ccc(O)cc3)C(=O)N=C2S1
266
37. COc1cccc2c1C(=O)c1c(O)c3c(c(O)c1C2=O)C[C@@](O)(C(=O)CO)C[C@@H]3O[C@H]1C[C@H](N)[C@@H](O)[C@H](C)O1
53
38. Cc1nn(-c2nc3ccccc3[nH]2)c(O)c1C1OC(=O)c2ccccc21 (centres unmarked)
264
